System: OVCAR-3 ovarian
Assay: NCI-60 one-dose screen, 48 h
Conditions: 10 µM unless noted
Experimental: Growth inhibition of the OVCAR-3 human tumor cell line is measured as a screen for anti-cancer activity. Cells are grown in 96 well plates and exposed to the test compound for 48 hours. Compounds are tested at a single concentration, which is 10^-5 M for most compounds. The reported endpoint is percent growth (GI% or GIPRCNT), where numbers from 0 - 100% represent growth inhibition, and numbers from -100% - 0 represent cell death. For example, a value of 40 represents 60% growth inhibition. […]
Compounds without any hit were thinned out: in the full panel of roughly 83,000, 20% have a hit. Active and inactive are the calls of the source. The calls were made as follows: active = growth percent below 10; inactive = the rest.
Hello, when you answer, please use one of the following outcomes: Yes (active), No (inactive)

The following compounds have reported results that may help.
| compound | labelValue |
| --- | --- |
| Cn1c(=O)c2c(nc3n(-c4ccc(Cl)cc4Cl)c(Sc4nc(-c5ccccc5)c(C#N)c(=O)[nH]4)cn23)n(C)c1=O | Yes |
| COc1ccc(C(=O)/C=C/c2cccnc2Nc2cc(OC)c(OC)c(OC)c2)cc1 | No |

Qu. Returns: the outcome recorded for CC1=C[C@H]2c3c(c(O)c(O)c4oc5cc(O)ccc5c(=O)c34)[C@H](c3cc(O)c(O)c4oc5cc(O)ccc5c(=O)c34)[C@H]2C(C)(C)C1 in this assay.
Ans. No

Qu. Returns: the outcome recorded for COc1ccc(/C=N/C2=C(C#N)C(c3ccc(N(C)C)cc3)c3ccc4ccccc4c3O2)cc1 (stereo not drawn) in this assay.
Ans. No

Qu. Could you check what this test reported for Clc1ccc2c(NCCNc3nc(N4CCCCC4)nc4ccccc34)ccnc2c1 ?
Ans. Yes

Qu. What call does the record list for CN(CCCCCl)P(=O)(OCc1ccc([N+](=O)[O-])o1)C(F)(F)c1ccc(CC(=O)NC[C@@H](O)/C=C\[C@@H](O)[C@H](CO)Cc2ccccc2)cc1 (stereo partly drawn) ?
Ans. No

Qu. Recorded call for CCOC(=O)c1csc(NC(=O)COc2cccc(/C=C3\CSc4ccccc4C3=O)c2)n1 ?
Ans. Yes

Qu. Call for entry C=CC(=O)Nc1cccc(-c2nc(SC)nc(NCCc3ccc(OC)c(OC)c3)c2C#N)c1 :
Ans. No
